- EXPERIMENTAL_SYSTEM: T1, soluble heterodimeric hCD3ε/δ.mFc protein (human)
- T1 construct: also called soluble human CD3; soluble heterodimeric CD3 protein
- T1 chain 1: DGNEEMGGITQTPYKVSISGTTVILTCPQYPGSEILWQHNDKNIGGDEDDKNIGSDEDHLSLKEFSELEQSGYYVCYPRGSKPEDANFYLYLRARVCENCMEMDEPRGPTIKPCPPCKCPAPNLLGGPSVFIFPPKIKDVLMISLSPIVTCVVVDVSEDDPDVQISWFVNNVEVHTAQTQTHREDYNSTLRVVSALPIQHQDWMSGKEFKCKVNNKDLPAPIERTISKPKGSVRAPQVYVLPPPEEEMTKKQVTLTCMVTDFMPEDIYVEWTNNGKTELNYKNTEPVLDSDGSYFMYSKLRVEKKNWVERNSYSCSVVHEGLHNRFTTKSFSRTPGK
- T1 chain 2: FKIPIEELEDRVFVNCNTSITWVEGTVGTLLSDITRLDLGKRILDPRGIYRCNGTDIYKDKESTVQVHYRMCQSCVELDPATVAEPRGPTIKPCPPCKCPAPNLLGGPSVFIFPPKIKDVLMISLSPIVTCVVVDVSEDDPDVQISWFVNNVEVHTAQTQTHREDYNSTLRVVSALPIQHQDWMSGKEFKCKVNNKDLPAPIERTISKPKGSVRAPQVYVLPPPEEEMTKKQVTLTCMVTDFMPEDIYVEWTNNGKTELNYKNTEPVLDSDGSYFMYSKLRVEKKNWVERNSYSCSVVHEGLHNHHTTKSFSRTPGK
- EXPERIMENT: SPR MASS-1, 37 C, antigen-capture format

BINDER | binding result
BSPSMA/CD3-300 (bispecific antibody, IgG4, V domains shown, modified (chimeric) IgG4 Fc domain; also called PSMA-VH-11810 x CD3-VH-G3) VH 1: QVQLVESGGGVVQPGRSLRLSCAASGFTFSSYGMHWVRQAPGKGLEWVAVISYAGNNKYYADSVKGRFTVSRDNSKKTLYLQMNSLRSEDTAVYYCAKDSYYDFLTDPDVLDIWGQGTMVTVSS VH 2: EVQLVESGGGLVQPGRSLRLSCAASGFTFDDYSMHWVRQAPGKGLEWVSGISWNSGSIGYADSVKGRFTISRDNAKNSLYLQMNSLRAEDTALYYCAKDGSGYGYFYYYGMDVWGQGTTVTVSS VL: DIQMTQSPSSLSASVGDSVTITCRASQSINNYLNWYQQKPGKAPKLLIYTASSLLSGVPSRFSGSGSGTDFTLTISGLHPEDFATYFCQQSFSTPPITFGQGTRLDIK | no binding
BSPSMA/CD3-400 (bispecific antibody, IgG4, V domains shown, modified (chimeric) IgG4 Fc domain; also called PSMA-VH-11810 x CD3-VH-G4) VH 1: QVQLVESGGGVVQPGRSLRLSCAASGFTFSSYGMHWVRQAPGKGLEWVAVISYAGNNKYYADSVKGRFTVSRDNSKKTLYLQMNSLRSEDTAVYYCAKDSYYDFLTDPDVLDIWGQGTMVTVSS VH 2: EVQLVESGGGLVQPGRSLRLSCAASGFTFDDYAMHWVRQAPGKGLEWVSGISWNSGSIGYADSVKGRFTISRDNAKNSLYLQMNSLRAEDTALYYCAKDGSGYGKFYYYGMDVWGQGTTVTVSS VL: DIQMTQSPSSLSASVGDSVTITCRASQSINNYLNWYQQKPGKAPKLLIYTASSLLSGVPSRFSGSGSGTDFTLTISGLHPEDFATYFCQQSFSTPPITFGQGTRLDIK | no binding

Just for reference, patent US20190127480A1 is where these values come from.
